Entries and their growth values follow.
tested on: KM12 colon; test: NCI-60 one-dose screen, 48 h (100 = growth as untreated, 0 = no growth, -100 = all killed); conditions: 10 µM
This is part of a sample that, as a whole, favours compounds with a hit. Of some 83,000 tested, about 20% had one in any assay.

>  <compound>
O=C(O)c1cccc([N+](=O)[O-])c1O

>  <growth (%)>
110

$$$$
>  <compound>
CC1CC(O)C2C3(C)CCCC2(COC3=O)C12CCC1(CCOC1=O)O2 (configuration not stated)

>  <growth (%)>
107

$$$$
>  <compound>
CN(C)C(=O)Oc1cccc([N+](C)(C)C)c1

>  <growth (%)>
102

$$$$
>  <compound>
Cc1cc(N)ccc1-c1ccc(N)cc1C

>  <growth (%)>
99.7

$$$$
>  <compound>
Cc1ccc(C(O)C2CC2)cc1 (configuration not stated)

>  <growth (%)>
107

$$$$
>  <compound>
CC(O)COc1ccc(-c2ccccc2)cc1 (configuration not stated)

>  <growth (%)>
105

$$$$
>  <compound>
CCCC(C)OCC(=O)O (configuration not stated)

>  <growth (%)>
101

$$$$
